Target: T1, Human OSM (human, UniProt P13725 26-221)
T1 construct: Recombinant human OSM; also called hOSM; human Oncostatin M
T1 sequence: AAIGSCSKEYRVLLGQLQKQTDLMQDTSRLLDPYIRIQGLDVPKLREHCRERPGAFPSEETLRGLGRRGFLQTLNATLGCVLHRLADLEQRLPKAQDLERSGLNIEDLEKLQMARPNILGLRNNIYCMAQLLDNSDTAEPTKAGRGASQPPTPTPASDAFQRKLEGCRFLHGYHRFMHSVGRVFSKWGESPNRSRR
Test: BIAcore kinetics, transfection supernatant
// reported log10 koff for each item listed
Measured property: log10 koff (log10 of the value in s⁻¹)

>>> endpoint_value("Humanised 10G8 H0(IGHV3-23)L1 (antibody, human IgG1, kappa, V domains shown, IgG1 kappa; also called H0(huCDRH1)L1; H0 (CDRH1 IGHV3_23) L1) VH: EVQLVESGGGLVQPGGSLRLSCAASGFTFSSYAMSWVRQAPGKGLEWVATISDGGSFTYYLDNVRGRFTISRDNAKNSLYLQMNSLRAEDTAVYYCARDVGHTTFWYFDVWGRGTLVTVSS VL: DIVMTQSPDSLAVSLGERATINCRASKSVSAAGYNFMHWYQQKPGQPPKVLIYYASNLESGVPDRFSGSGSGTDFTLTISSLQAEDVAVYYCLHSREFPFTFGGGTKVEIKR")
-3.80
>>> endpoint_value("Humanised 10G8 H0 IGHV3_7 + L1 IGKV4_1 (antibody, V domains shown, built from the stated CDR exchanges; residue limits derived by me) VH: EVQLVESGGGLVQPGGSLRLSCAASGFTFSSYWMSWVRQAPGKGLEWVATISDGGSFTYYLDNVRGRFTISRDNAKNSLYLQMNSLRAEDTAVYYCARDVGHTTFWYFDVWGRGTLVTVSS VL: DIVMTQSPDSLAVSLGERATINCRASKSVSAAGYNFMHWYQQKPGQPPKVLIYWASTRESGVPDRFSGSGSGTDFTLTISSLQAEDVAVYYCLHSREFPFTFGGGTKVEIK")
-2.79
>>> endpoint_value("Humanised 10G8 H0 IGHV3_7 + L1 (antibody, V domains shown, built from the statement that the germline CDRH1 was exchanged for the mouse CDRH1 in H0; Human gamma 1/kappa constant regions) VH: EVQLVESGGGLVQPGGSLRLSCAASGFTFSSYWMSWVRQAPGKGLEWVATISDGGSFTYYLDNVRGRFTISRDNAKNSLYLQMNSLRAEDTAVYYCARDVGHTTFWYFDVWGRGTLVTVSS VL: DIVMTQSPDSLAVSLGERATINCRASKSVSAAGYNFMHWYQQKPGQPPKVLIYYASNLESGVPDRFSGSGSGTDFTLTISSLQAEDVAVYYCLHSREFPFTFGGGTKVEIK")
-3.01
>>> endpoint_value("Humanised 10G8 H0 + L1 IGKV1_5 (antibody, V domains shown, built from the stated exchange of CDRL2; residue limits derived by me; Human gamma 1/kappa constant regions) VH: EVQLVESGGGLVQPGGSLRLSCAASGFTFSNYAMSWVRQAPGKGLEWVATISDGGSFTYYLDNVRGRFTISRDNAKNSLYLQMNSLRAEDTAVYYCARDVGHTTFWYFDVWGRGTLVTVSS VL: DIVMTQSPDSLAVSLGERATINCRASKSVSAAGYNFMHWYQQKPGQPPKVLIYKASSLESGVPDRFSGSGSGTDFTLTISSLQAEDVAVYYCLHSREFPFTFGGGTKVEIK")
-3.19
>>> endpoint_value("Humanised 10G8 H0L1 (antibody, human IgG1, kappa, V domains shown, IgG1 kappa; mature H0 heavy chain and mature L1 light chain; also called Humanised 10G8 H0L1 parent) VH: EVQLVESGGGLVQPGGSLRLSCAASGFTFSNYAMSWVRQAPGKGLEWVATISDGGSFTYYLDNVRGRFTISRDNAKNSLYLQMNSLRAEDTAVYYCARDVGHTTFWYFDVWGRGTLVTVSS VL: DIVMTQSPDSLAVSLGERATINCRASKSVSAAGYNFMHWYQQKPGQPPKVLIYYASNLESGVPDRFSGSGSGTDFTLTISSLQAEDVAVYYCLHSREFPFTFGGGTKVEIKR")
-3.82
